endpoint-label: melting point

For every listed record, write down its melting point.
1. CC1=NS(=O)(=O)N(C)C(Oc2cccnc2)=N1
2. N#Cc1nn(-c2c(Cl)cc(C(F)(F)F)cc2Cl)c(N)c1C(F)(F)F
3. CCCOc1nc(N[C@@H](C)Cc2ccccc2)c2cnn(-c3ccccc3)c2n1
4. O=C(Nc1c[nH]nc1C(=O)NCc1ccco1)c1ccccn1
5. O=C(c1ccccc1)c1ccc(CP(=O)(O)O)cc1
6. N#Cc1ccc(CNC(=O)c2cccc(C#CCn3ccnn3)c2)cc1
7. CCNC(=O)Nc1nc2cc(-c3ccc(N(C)C)nc3)ccn2n1

1. 137 to 138 °C
2. 191 to 193 °C
3. 134 to 136 °C
4. 198 to 199 °C
5. 172 to 175 °C
6. 145 to 147 °C
7. 285 to 290 °C

For every listed record, write down its melting point.
1. O=C(O)c1ccc(NCc2ccc(Cl)s2)cc1
2. O=C(O)Cn1c(=O)n(Cc2ccc(Cl)c(Cl)c2)c(=O)c2ccccc21
3. CNC(=O)OC1CCC2(CO2)C(C2(C)OC2CC=C(C)C)C1OC (stereo not drawn)
4. C[Si](C)(C)OC1(C#N)CCOc2ccc(Cl)cc21 (stereo not drawn)

["177 to 178 °C", "225 to 227 °C", "92 to 93 °C", "72 to 73 °C"]

For every listed record, write down its melting point.
1. O=[N+]([O-])c1ccc(-c2cc(-c3ccc(Cl)cc3)[nH]c2C(F)(F)F)s1
2. CC(=O)NCc1ccc(C(C)O)cc1 (stereo not drawn)

65 to 66 °C
61 to 62 °C

For every listed record, write down its melting point.
1. CC(C)NCCOc1ccc(O)cc1
2. CCCc1nc(SC(F)F)c(C(=O)O)n1Cc1ccc(-c2ccccc2S(=O)(=O)NC(=O)NCCCc2ccccc2)cc1
3. O=C(c1ccccc1)N(N=Cc1ccccc1)c1ccccc1F
4. O=C(Nc1nc2cnccc2s1)Oc1ccccc1

1: 78 to 80 °C; 2: 108 °C; 3: 97 to 99 °C; 4: > 290 °C

Could you tell me which melting point is on file for CCC1CCc2cc(CC(=O)O)ccc2O1 (stereo not drawn) ?
88 to 90 °C

---

endpoint-label: melting point

See these solved cases before continuing.
compound	endpoint-label	endpoint-result
CC1(Cn2c(=O)oc3ccccc32)Cn2cc([N+](=O)[O-])nc2O1 (stereo not given)	melting point	223 to 224 °C
COC(=O)C(=NO)c1nc2cc(C)ccc2oc1=O	melting point	176 to 177 °C
O=C(c1ccc(F)cc1)N1CCC[C@H](c2nc(-c3ccccc3)no2)C1	melting point	78 to 79 °C
CN(CCOc1ccc(CC2SC(=O)NC2=O)cc1)c1nccs1 (stereo not given)	melting point	186 °C
COc1cc(C)c(C=O)c(OC)c1OC	melting point	55 to 57 °C
CC(Cc1ccc(C(=O)N[C@@H](CCC(=O)O)C(=O)O)cc1)C1CNc2nc(N)nc(O)c2C1 (stereo not given in full)	melting point	> 250 °C
COC(=O)c1ccc(OC)c2c(I)c(OC)ccc12	melting point	120 to 122 °C
Clc1cc(Cl)c2c(CCBr)coc2c1	melting point	43 °C
Cc1cn(C2OC(CO)C(O)C2O)c(=O)[nH]c1=O (stereo not given)	melting point	244 to 249 °C
O=C(O)c1cccc(OCc2ccccc2)c1[N+](=O)[O-]	melting point	198 to 200 °C

For every listed record, write down its melting point.
1. CCN(CC)C(=O)C=Cc1ccc(C2=C(c3ccc(O)cc3)CCc3cc(O)ccc32)cc1
2. CCOC(=O)c1cc(N=Cc2ccccc2)ccc1O
3. O=C(O)c1ccc(Nc2c(C(=O)O)cc(Cl)cc2[N+](=O)[O-])cc1
4. CC(C)c1nc(C(C)(C)C)cc(-c2ccc(F)cc2)c1C=CI
5. Cc1cc(-c2ccc(S(C)(=O)=O)cc2)n(-c2ccc(F)cc2)c1F
6. N#Cc1ccc2c(c1)nc(/C=C/c1ccccc1)n2-c1ccccn1

["222 °C", "63 to 65 °C", "264 to 266 °C", "78 to 80 °C", "109 to 110 °C", "172 to 173 °C"]

For every listed record, write down its melting point.
1. CC(C)Nc1nccc(C(=O)C(=O)c2ccc(F)cc2)n1
2. CCCOc1ccc(-c2c(C)c(=O)cc(-c3ccccc3)n2-c2ccccc2)cc1
3. Cc1oc(-c2ccccc2)nc1CCC(N)=S
4. O=c1c(-c2ccc(F)cc2)c(-c2ccc(SC(F)(F)F)cc2)cnn1Cc1ccccc1

1. 75 to 77 °C
2. 165 to 168 °C
3. 167 to 168 °C
4. 145 to 146 °C

For every listed record, write down its melting point.
1. C=C1CC(c2ccc(C)c(C)c2)N(C)C1=O (stereo not given)
2. Cc1ccc(S(=O)(=O)N2CCCC2c2ccncc2)cc1 (racemic)
3. O=C(CC1CCN(Cc2ccccc2)CC1)Nc1cncnc1NCc1ccc(F)cc1
4. CCCOc1ccccc1C1C(C(=O)OCC)=C(CCC)Nc2n[nH]cc21 (stereo not given)
5. CCOC(=O)C(CCc1ccccc1)CC1(C(=O)O)CCCC1 (stereo not given)
6. CC(C)Cn1c(=O)n(C)c(=O)c2c(-c3ccccc3F)n(Cc3csc4ccccc34)nc21
7. CC(CN1C(=O)C2(COc3cc4c(cc32)CCO4)c2ccccc21)OCc1ccccn1 (stereo not given)

["180 to 184 °C", "158 °C", "157 °C", "205 °C", "68 to 69 °C", "55 to 57 °C", "46 to 54 °C"]

For every listed record, write down its melting point.
1. O=C1c2cc(OCc3ccc4ccccc4n3)ccc2SCC1Cc1ccccc1 (stereo not given)
2. COC(=O)c1ccc(C=Cc2ccc(OC)cc2)nc1
3. O=C(OCC1CC1)c1ncn2c1[C@@H]1CCCN1C(=O)c1c(Br)cccc1-2
4. OCC1(CO)CC2C=CC1C2 (stereo not given)
5. CCC(=O)Nc1cc(C2=NNC(=O)CC2C)ccc1N1CCOCC1 (stereo not given)
6. Cc1c(Cc2ccccc2)oc2cc(O)c(O)cc12
7. CCCNc1nc(NCCC)nc(N2CCN(C(=O)Nc3cc(C)c(C)nc3OC)CC2)n1
8. CC(C)OC(=O)N1CCC(NC(=O)N2CCn3c(c(C(N)=O)c(C#N)c3C3CCOCC3)C2)CC1

1. 127 to 130 °C
2. 170 °C
3. 135 to 136 °C
4. 110 °C
5. 193 to 196 °C
6. 95.5 to 98 °C
7. 140 to 143 °C
8. 124 to 126 °C

---

endpoint-label: melting point

compound	melting point
CN(C(=O)[C@H]1CC[C@@H](c2ccccc2)N1C(=O)OC(C)(C)C)c1ccccc1 (racemic)	132 °C
CCOC(=O)/C=C(/c1ccc(OCC)cc1)c1cc(Cl)cc(Cl)c1	104 to 106 °C
Cc1cccc(NC(=O)NCC(=O)N(CC(=O)N(C)c2ccc(Cl)cc2)c2ccccc2)c1	160 °C
Cc1c(Sc2ccc(Cl)cc2)nn(-c2cccc(Cl)c2)c(=O)c1C#N	150 to 151 °C
COc1c(C)cc(NC(C)=O)c(Br)c1C	152 to 153 °C

For every listed record, write down its melting point.
1. CCOC(=O)Nc1ccc(OCc2ccc(Cl)cc2)cc1[N+](=O)[O-]
2. COC(C)c1cc(S(N)(=O)=S)sc1C (stereo unspecified)
3. CCOC(=O)OCCn1nc(-c2cc(C(C)(C)C)c(O)c(C(C)(C)C)c2)c2cccnc21

122 °C
86 to 94 °C
103 to 105 °C

For every listed record, write down its melting point.
1. COC(=O)[C@@H]1CCCN1S(=O)(=O)c1ccc(C)c(COc2cccc3c(C)cc(C)nc23)c1C
2. O=C1Nc2ccc(Cl)cc2C1(O)c1ccccc1OCc1ccccc1 (stereo unspecified)
3. CCCCC1CCC(C2=C(Cl)C(=O)c3ccccc3C2=O)CC1 (stereo unspecified)
4. COCOc1c(-c2cccc(C=CC(=O)O)c2)ccc2c1C(C)(C)CCC2(C)C
5. O=C(CCc1ccsc1)CC(=O)N1CCOCC1
6. CC(C)OC(=O)NNc1n[nH]c2cc(Cl)ccc12
7. COCC(=O)Oc1ccc(C=CNC(C)=O)cc1

1. 50 °C
2. 197 °C
3. 107 to 110 °C
4. 188 to 189 °C
5. 81 to 84 °C
6. 184 to 185 °C
7. 169 to 170 °C

For every listed record, write down its melting point.
1. CC(C)N(O)C(=O)Nc1ccc(S(C)=O)cc1 (stereo unspecified)
2. COCCOC(=O)C1=C(O)c2ccccc2S(=O)(=O)N1C

136 °C
106 to 108 °C

---

endpoint-label: melting point

See these solved cases before continuing.
compound	melting point
COc1ccc(Cn2c3c(ccc2=O)C(C)NC(SC)=N3)cc1Cl (centres undefined)	184 to 186 °C
CC(=O)OC1CSC(Oc2cccc(-c3ccc(F)nc3)c2)C(OC(C)=O)C1OC(C)=O (centres undefined)	115 °C
COC(=O)c1cccc2[nH]c3cc4ccccc4c(OC)c3c12	190 to 196 °C
O=C1N(C(c2ccccc2)c2ccccc2)c2ccccc2C12COc1cc3c(cc12)OCCO3 (centres undefined)	183 to 185 °C
CCc1cccc2c3c([nH]c12)C(CC)(CC(=O)O)CCC3c1ccccc1 (centres undefined)	140 to 142 °C

For every listed record, write down its melting point.
1. CC(C)c1nn(-c2ccccn2)c(-c2ccc(F)cc2)c1/C=C/C=O
2. CC1CC(=O)c2cc([N+](=O)[O-])ccc2O1 (centres undefined)
3. O=C1C(O)=C(CC2CCCC(C(F)(F)F)C2)C(=O)c2ccccc21 (centres undefined)
4. COc1cccc(NCc2sccc2S(=O)(=O)Nc2onc(C)c2Br)c1
5. CCOC(=O)c1ccc2c(c1)sc1ccc(C)cc12
6. CCN1CCCC1CNC(=O)c1cc(S(N)(=O)=O)cc2c1OCCO2 (centres undefined)
7. OC[C@@H]1CC=CC[C@@H]1CO
8. CC(=O)OCNC(=O)c1cc(Cl)nc(Cl)c1

105 to 107 °C
144 to 145 °C
142 °C
70 to 73 °C
83 to 87 °C
160 to 161 °C
33 to 35 °C
94 to 95 °C

For every listed record, write down its melting point.
1. O=C(NCCO)c1cccc(-c2cccc3oc(Cc4cccc(C(F)(F)F)c4)nc23)c1
2. S=C(Nc1cccnc1)N1N=CCC1c1ccccc1 (centres undefined)
3. NC(CCCCNC(=O)OCc1ccccc1)C(=O)NC1c2ccccc2-c2ccccc21 (centres undefined)
4. Cc1ccc(S(=O)(=O)OC[C@H](O)c2ccc(OCc3ccccc3)cc2)cc1
5. CCN(CC)C(=O)Oc1nc(-c2ccc(OC)cc2)cc2ccccc12

["132 to 133 °C", "156 to 158 °C", "> 280 °C", "91 to 92 °C", "84 °C"]

Could you tell me which melting point is on file for NC(=O)N1CC(Oc2ccccc2)C1 ?
179 to 186 °C
